Biological target: N-terminally GST-tagged human full length recombinant Mps-1 kinase (Homo sapiens)
Construct: N-terminally GST-tagged human full length recombinant Mps-1 kinase; purchased Invitrogen, Karslruhe, Germany PV4071
Experiment: Mps-1 kinase assay (TR-FRET)
Type: biochemical
Conditions: Mps1 IC50 [nM], 10 μM ATP, 1 μM peptide substrate, 60 min at 22° C.
Reported IC50 values follow for various compounds

Use the examples below as a reference point.
In [3]: df
Out[3]:
                                item_smiles  property_name  result
0  CC(C)CNc1cc(-c2cccc(C(N)=O)c2)nn2c(-c3ccc(C(=O)NC4CC4)cc3)cnc12           IC50  < 1 nM
1  CCNC(=O)c1ccc(-c2cnc3c(NCCC(F)(F)F)cc(Oc4cc(F)ccc4C)nn23)cc1C           IC50  < 1 nM
2  CCNC(=O)c1ccc(-c2cnc3c(NCC4CCOCC4)cc(Oc4ccc(OC)cc4F)nn23)cc1C           IC50  < 1 nM

Given "Cc1cc(-c2cnc3c(NCC(C)(C)O)cc(Nc4cccc(Cl)c4)nn23)ccc1C(=O)NC1CC1" , state its recorded IC50.
0.9 nM

* * *

Target: N-terminally GST-tagged human full length recombinant Mps-1 kinase (Homo sapiens)
Construct: N-terminally GST-tagged human full length recombinant Mps-1 kinase; purchased Invitrogen, Karslruhe, Germany PV4071
Test: Mps-1 kinase assay (TR-FRET)
Format: biochemical
Conditions: Mps1 IC50 [nM], 10 μM ATP, 1 μM peptide substrate, 60 min at 22° C.
property-name: IC50 (nM)

Use the examples below as a reference point.
                                item_smiles  property_name  numeric_result
0  CC(C)CNc1cc(-c2cccc(Cl)c2Cl)nn2c(-c3ccc(C(=O)NC4CC4)cc3)cnc12           IC50              10
1  Cc1cc(-c2cnc3c(NCCCS(C)(=O)=O)cc(Oc4cccc(F)c4)nn23)ccc1C(=O)NC1CC1           IC50             0.2
2  Cc1cc(-c2cnc3c(NCC4CCS(=O)(=O)CC4)cc(Sc4ccccc4)nn23)ccc1C(=O)NC1CC1           IC50             0.3

(a) Cc1cc(-c2cnc3c(NCCN(C)C)cc(Oc4ccc(F)c(F)c4)nn23)ccc1C(=O)NC1CC1
(b) Cc1cc(-c2cnc3c(NCCS(C)(=O)=O)cc(Oc4cccc(F)c4F)nn23)ccc1C(=O)NC1CC1
(c) Cc1cc(-c2cnc3c(NCC(C)(C)O)cc(-c4cncnc4)nn23)ccc1C(=O)NC1CC1
// smallest IC50 at index 0, largest at the end Answer by listing the labels in the requested order.
b, a, c
(b: 0.3 nM, a: 0.7 nM, c: 30.5 nM)

(a) COC1(NC(=O)c2ccc(-c3cnc4c(NCCC(F)(F)F)cc(Oc5cccc(F)c5)nn34)cc2C)CC1
(b) Cc1cc(-c2cnc3c(NCC4CCN(C)CC4)cc(Oc4cccc(F)c4F)nn23)ccc1C(=O)NC1CC1
Pick one: a or b . Which one has the lower reported IC50? Reply briefly: the label of your chosen item.
b

* * *

Target: N-terminally GST-tagged human full length recombinant Mps-1 kinase (Homo sapiens)
Construct: N-terminally GST-tagged human full length recombinant Mps-1 kinase; purchased Invitrogen, Karslruhe, Germany PV4071
Sequence (P33981 1-857): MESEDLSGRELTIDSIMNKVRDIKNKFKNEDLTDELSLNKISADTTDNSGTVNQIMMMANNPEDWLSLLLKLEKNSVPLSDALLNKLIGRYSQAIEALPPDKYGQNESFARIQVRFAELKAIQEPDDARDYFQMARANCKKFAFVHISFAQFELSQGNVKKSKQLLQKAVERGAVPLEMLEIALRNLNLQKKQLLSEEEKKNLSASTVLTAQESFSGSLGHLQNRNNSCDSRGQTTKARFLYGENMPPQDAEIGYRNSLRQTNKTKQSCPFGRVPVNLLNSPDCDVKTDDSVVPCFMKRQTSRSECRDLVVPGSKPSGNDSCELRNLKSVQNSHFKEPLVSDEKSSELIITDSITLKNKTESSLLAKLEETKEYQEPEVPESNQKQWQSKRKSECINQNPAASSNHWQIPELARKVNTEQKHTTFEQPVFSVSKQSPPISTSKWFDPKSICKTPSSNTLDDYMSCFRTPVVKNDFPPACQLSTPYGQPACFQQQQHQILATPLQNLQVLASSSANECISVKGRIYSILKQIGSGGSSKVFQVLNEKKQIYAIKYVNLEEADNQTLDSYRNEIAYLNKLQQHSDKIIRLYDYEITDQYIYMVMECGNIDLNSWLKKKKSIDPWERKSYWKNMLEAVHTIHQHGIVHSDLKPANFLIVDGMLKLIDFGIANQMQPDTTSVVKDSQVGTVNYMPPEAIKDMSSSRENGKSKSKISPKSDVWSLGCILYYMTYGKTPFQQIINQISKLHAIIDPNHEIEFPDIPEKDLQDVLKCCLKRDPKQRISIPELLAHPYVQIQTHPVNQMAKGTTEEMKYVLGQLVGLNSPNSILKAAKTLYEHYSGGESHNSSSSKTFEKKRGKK
Test: Mps-1 kinase assay (TR-FRET)
Assay type: biochemical
Details: Mps1 IC50 [nM], 10 μM ATP, 1 μM peptide substrate, 60 min at 22° C.
property-name: IC50 (nM)

Use the examples below as a reference point.
                                item_smiles  unit  numeric_result
0  Cc1cc(-c2cnc3c(NCCC(F)(F)F)cc(Oc4ccc(Cl)cc4)nn23)ccc1C(=O)NC1CC1    nM             0.3
1  Cc1cc(-c2cnc3c(NCCCN4CCCC4)cc(Oc4cccc(F)c4)nn23)ccc1C(=O)NC1CC1    nM             0.2
2  CC(C)(O)CNc1cc(Sc2cccc(F)c2)nn2c(-c3ccc(C(=S)NC4CC4)cc3)cnc12    nM             0.6

(P) CC(C)CNc1cc(-c2ccsc2)nn2c(-c3ccc(C(=O)NC4CC4)cc3)cnc12
(Q) Cc1cc(-c2cnc3c(NCC(C)(C)O)cc(Nc4ccccn4)nn23)ccc1C(=O)NC1CC1
(R) Cc1cc(-c2cnc3c(NCC(C)(C)O)cc(Oc4cccc(C(C)C)c4)nn23)ccc1C(=O)NC1CC1
(S) Cc1cc(-c2cnc3c(NCC(C)(C)O)cc(Nc4ccccc4O)nn23)ccc1C(=O)NC1CC1
// smallest IC50 at index 0, largest at the end Answer by listing the labels in the requested order.
S, R, P, Q

* * *

Biological target: N-terminally GST-tagged human full length recombinant Mps-1 kinase (Homo sapiens, UniProt P33981)
Construct: N-terminally GST-tagged human full length recombinant Mps-1 kinase; purchased Invitrogen, Karslruhe, Germany PV4071
Test: Mps-1 kinase assay (TR-FRET)
Assay type: biochemical
Conditions: Mps1 IC50 [nM], 10 μM ATP, 1 μM peptide substrate, 60 min at 22° C.
Protocol: The human kinase Mps-1 phosphorylates a biotinylated substrate peptide. Detection of the phosphorylated product is achieved by time-resolved fluorescence resonance energy transfer (TR-FRET) from Europium-labelled anti-phospho-Serine/Threonine antibody as donor to streptavidin labelled with cross-linked allophycocyanin (SA-XLent) as acceptor. Compounds are tested for their inhibition of the kinase activity. […]
property-name: IC50 (nM)

>>> print(df.to_string())
                                   compound  unit  numeric_result
0  CNC(=O)c1ccc(-c2cnc3c(NCCC(F)(F)F)cc(Oc4ccc(Cl)cc4)nn23)cc1C    nM             0.3
1  CC(C)(O)CNc1cc(-c2ccc(F)cc2)nn2c(-c3ccc(C(=O)NC4CC4)cc3)cnc12    nM             1.6
2  COc1ccc(Oc2cc(NCCS(C)(=O)=O)c3ncc(-c4ccc(C(=O)NC5CC5)c(C)c4)n3n2)cc1F    nM             0.1
3  Cc1cc(-c2cnc3c(NCCC(F)(F)F)cc(Nc4ccc(Cl)cc4)nn23)ccc1C(=O)NC1CC1    nM             0.3
4  Cc1cc(-c2cnc3c(NCCC(F)(F)F)cc(SCCN4CCOCC4)nn23)ccc1C(=O)NC1CC1    nM             1.7
5  Cc1cc(-c2cnc3c(NCC4COC4)cc(Oc4cccc(F)c4)nn23)ccc1C(=O)NC1CC1    nM             0.1
6  Cc1cc(-c2cnc3c(NC[C@H]4CC[S@@+]([O-])CC4)cc(Oc4cccnc4)nn23)ccc1C(=O)NC1CC1 [Example 296B]    nM             0.5
7  Cc1cc(-c2cnc3c(NCCC(F)(F)F)cc(Nc4ccc(CCO)cc4)nn23)ccc1C(=O)NC1CC1    nM             0.2
8  Cc1cc(-c2cnc3c(NCCC(F)(F)F)cc(Oc4cccc(F)c4)nn23)ccc1C(=O)NCC(F)F    nM             0.3
9  COC(=O)c1cc(F)ccc1-c1cc(NCC(C)(C)O)c2ncc(-c3ccc(C(=O)NC4CC4)c(C)c3)n2n1    nM             148

(P) Cc1cc(-c2cnc3c(NCC(C)(C)O)cc(Oc4ccccc4F)nn23)ccc1C(=O)NC1CC1
(Q) CCNC(=O)c1ccc(-c2cnc3c(NCCC(F)(F)F)cc(Oc4ccc(Cl)cc4)nn23)cc1C
Pick one: P or Q . Which one has the lower reported IC50? Reply briefly: the label of your chosen item.
P

(A) Cc1cc(-c2cnc3c(NCC(C)(C)O)cc(OCc4ccccc4)nn23)ccc1C(=O)NC1CC1
(B) CC(C)(O)CNc1cc(Sc2ccccc2)nn2c(-c3ccc(C(=S)NC4CC4)cc3)cnc12
(C) Cc1cc(-c2cnc3c(NCC(C)(C)O)cc(-c4ccc(F)cc4)nn23)ccc1C(=O)NC1CC1
(D) Cc1cc(-c2cnc3c(NCCC(F)(F)F)cc(Sc4ccc(F)c(F)c4)nn23)ccc1C(=O)NC1CC1
Place the items in sequence of falling IC50. Answer by listing the labels in the requested order.
A, C, B, D

(I) COc1ccc(Nc2cc(NCCC(F)(F)F)c3ncc(-c4ccc(C(=O)NC5CC5)c(C)c4)n3n2)cc1F
(II) Cc1cc(-c2cnc3c(NCC4CCSCC4)cc(Sc4ccccc4)nn23)ccc1C(=O)NC1CC1
(III) CC(C)CNc1cc(-c2cccc3ccccc23)nn2c(-c3ccc(C(=O)NC4CC4)cc3)cnc12
Place the items in sequence of falling IC50. Answer by listing the labels in the requested order.
III, II, I
(III: 24.6 nM, II: 0.4 nM, I: 0.2 nM)

(1) Cc1cc(-c2cnc3c(NCC(C)(C)O)cc(SC4CCCC4)nn23)ccc1C(=O)NC1CC1
(2) CNc1cc(Oc2cc(F)ccc2C)nn2c(-c3ccc(C(=O)NC4CC4)c(C)c3)cnc12
(3) CNc1cc(Oc2ccc(OC)c(F)c2)nn2c(-c3ccc(C(=O)NC4CC4)c(C)c3)cnc12
(4) CNC(=O)c1ccc(-c2cc(NCC(C)C)c3ncc(-c4ccc(C(=O)NC5CC5)cc4)n3n2)cn1
Place the items in sequence of falling IC50. Answer by listing the labels in the requested order.
4, 1, 2, 3

(P) Cc1cc(-c2cnc3c(NCCC(F)(F)F)cc(Nc4cccc(O)c4C)nn23)ccc1C(=O)NC1CC1
(Q) CC(=O)Nc1cccc(-c2cc(NCC(C)C)c3ncc(-c4ccc(C(=O)NC5CC5)cc4)n3n2)c1
Which is greater in IC50, the first item P or the second item Q ? Reply briefly: the label of your chosen item.
Q
